tested on: CAKI-1 renal; test: NCI tumour cell line growth inhibition, 48 h
Measured TGI accompanies every entry in the list below.
measured-attribute: TGI (µM)

compound="CC1CC/C(=C\\c2ccc(F)cc2)C(=O)/C1=C/c1ccc(F)cc1 (stereo not drawn)" censor_symbol== measured_value=12.1
compound=O=c1[nH]c2ccccc2nc1/C=C(\O)c1ccccc1O censor_symbol=> measured_value=100
compound=O=C1CC[C@@]2(O)[C@H]3Cc4ccc(-c5ccccc5)c5c4[C@@]2(CCN3CC2CC2)[C@H]1O5 censor_symbol== measured_value=36.7

====

test system: SW-620 colon; test: NCI tumour cell line growth inhibition, 48 h
Measured TGI accompanies every entry in the list below.
measured-attribute: TGI (µM)

compound=COc1cc(/C=N/Nc2ncnc3c2cnn3-c2ccccc2)ccc1O unit_annotation=µM censor_symbol=> measured_value=25
compound=CC(C)(C)c1cc(OCc2nn3c(Cc4ccccc4)nnc3s2)c(Cl)cc1OCc1nn2c(Cc3ccccc3)nnc2s1 unit_annotation=µM censor_symbol=> measured_value=100
compound=Cn1cc(-c2ccc3cc(-c4ccc(CC(=O)Nc5cc(C(C)(C)C)on5)cc4)cnc3c2)cn1 unit_annotation=µM censor_symbol== measured_value=3.99
compound=C=C1C(=O)O[C@@H]2[C@H](O)[C@@H](C)[C@@H]3C=CC(=O)[C@@]3(C)[C@@H](OC(=O)/C(C)=C/C)[C@H]12 unit_annotation=µM censor_symbol== measured_value=1.14
compound="Cc1csc2[n+]1-c1ccccc1N(C(=O)Nc1ccccc1)C(C)C2 (stereo not drawn)" unit_annotation=µM censor_symbol=> measured_value=100
compound=CCN(CC)CCN1C(=O)c2c(c3c4ccccc4[nH]c3c3ccc4ccccc4c23)C1=O unit_annotation=µM censor_symbol== measured_value=2.97
compound="CN(C)c1ccc(/C=C(\\NC(=O)c2ccccc2)C2=NC(CCC(=O)O)C(=O)O2)cc1 (stereo not drawn)" unit_annotation=µM censor_symbol=> measured_value=50
compound=COC(=O)[C@H](Cc1cnc[nH]1)NC(=O)[C@@H](NC(=O)Nc1cc(C(F)(F)F)cc(C(F)(F)F)c1)C(C)C unit_annotation=µM censor_symbol== measured_value=35.5
